# subject_of_test: Relaxin receptor 1 (Homo sapiens)
# experiment_summary: qHTS Assay for Antagonists of the Relaxin Receptor RXFP1; further: on the % scale 0 is the no-effect control and ±100 the full control effect
# assay_conditions: HEK293-RXFP1, relaxin-stimulated cAMP HTRF, 30 min; at 57.5 µM
Among all 350,000 compounds or so, about 2,100 (0.6%) were called active. Another 1% or so got no clear call; they are omitted.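 How the source made its calls: active means activity change of -60% or lower, but not beyond a set lower limit; inconclusive means change between -60% and -40%, or beyond the set limit; inactive means change above -40%.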 The list comes from a sample in which actives are over-represented; it also holds close analogues and randomly drawn compounds.
Outcome codes: yes for active, no for inactive

> print(dat)
                                    compound  label
 1  COc1ccc(OC)c(C(=O)NC2CCCc3c2cnn3-c2cc(C)cc(C)c2)c1 (configuration not stated)     no
 2  COc1ccc(C(=O)NC2CCCc3c2cnn3-c2cccc(C)c2C)c(OC)n1 (configuration not stated)    yes
 3                O=C(OCc1ccccc1)c1ccc(O)cc1     no
 4  CC(CCCc1ccccc1)NC(=O)c1nn(-c2ccc(Cl)cc2)nc1CO (configuration not stated)    yes
 5  O=C(CCC(=O)N1CC2CCCN2c2ccccc21)NCc1ccccc1Cl (configuration not stated)     no
 6  Cc1c(C)n(Cc2ccc(Cl)cc2)c2ccc(C(=O)N3CCN(c4ccccc4F)CC3)cc12     no
 7  Cc1cc2c(cc3c(SCc4cccc(Cl)c4)nnc(C)n32)o1     no
 8  Cc1ccc(NC(=O)CSc2nc3ccccc3c3nc(CCn4cncc4C)nn23)cc1F     no
 9  COc1ccc(OC)c(CNC(=O)CN2C(=O)CCn3nc(-c4cn(C)c5ccccc45)cc32)c1     no
10  Cc1ccc(-n2nc(CO)c(C(=O)NCCc3ccccc3)n2)cc1     no
11  Cc1ccc(-n2ncc3c2CCCC3NC(=O)c2cnccn2)cc1C (configuration not stated)     no
12  COc1ccc(S(=O)(=O)NCC(c2ccc(N(C)C)cc2)N2CCc3ccccc32)cc1OC (configuration not stated)     no

---

# activity change, negative = inhibition values compiled below
# subject_of_test: Relaxin receptor 1 (Homo sapiens) (UniProt Q9HBX9)
# Sequence (Q9HBX9 whole entry, looked up): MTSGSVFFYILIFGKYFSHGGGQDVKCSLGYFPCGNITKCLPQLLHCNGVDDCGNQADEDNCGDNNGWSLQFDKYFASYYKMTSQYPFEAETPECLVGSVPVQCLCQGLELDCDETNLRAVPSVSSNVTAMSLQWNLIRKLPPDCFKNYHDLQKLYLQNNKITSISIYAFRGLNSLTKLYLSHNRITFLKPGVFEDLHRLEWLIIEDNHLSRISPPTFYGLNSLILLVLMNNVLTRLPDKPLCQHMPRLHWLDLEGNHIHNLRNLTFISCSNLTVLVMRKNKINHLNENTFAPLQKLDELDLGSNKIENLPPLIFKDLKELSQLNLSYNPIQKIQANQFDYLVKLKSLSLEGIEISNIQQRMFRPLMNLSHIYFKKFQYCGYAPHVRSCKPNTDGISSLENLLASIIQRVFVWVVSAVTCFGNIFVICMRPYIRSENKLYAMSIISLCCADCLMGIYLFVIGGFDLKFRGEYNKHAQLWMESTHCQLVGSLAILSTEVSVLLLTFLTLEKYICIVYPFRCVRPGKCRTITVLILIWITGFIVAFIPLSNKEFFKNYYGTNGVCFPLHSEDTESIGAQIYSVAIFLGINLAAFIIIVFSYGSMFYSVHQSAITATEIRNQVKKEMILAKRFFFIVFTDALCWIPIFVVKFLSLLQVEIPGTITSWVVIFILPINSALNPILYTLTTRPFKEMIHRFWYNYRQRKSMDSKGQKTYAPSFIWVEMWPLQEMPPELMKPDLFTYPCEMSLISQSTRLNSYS
# experiment_summary: qHTS Assay for Antagonists of the Relaxin Receptor RXFP1; further: on the % scale 0 is the no-effect control and ±100 the full control effect
# assay_conditions: HEK293-RXFP1, relaxin-stimulated cAMP HTRF, 30 min; at 57.5 µM; hits give low values
Among all 350,000 compounds or so, about 2,100 (0.6%) were called active. Roughly 1% stayed inconclusive and do not appear here. Shown is part of a subset that was picked to be rich in actives.
endpoint_label: activity change, negative = inhibition (%)

> print(dat)
                                    compound  unit.tag  value.measured
 1       CCn1c(CSc2nc(C)cc(C)n2)nnc1SCC(N)=O         %            13.9
 2            Cc1ccccc1NC(=O)CSC(=O)c1ccccc1         %          -0.348
 3  c1ccc2c(NC3C4CC5CC(C4)CC3C5)nc(N3CCOCC3)nc2c1 (stereo unspecified)         %           -78.7
 4  O=C(c1ccc(F)cc1)N1CCCC(c2nc(-c3cccs3)no2)C1 (stereo unspecified)         %             2.8
 5  Cc1ccccc1N/C(SCc1ccc(Cl)cc1)=C(/C#N)C(N)=O         %           -65.6
 6                       Cc1ccnc(SCC(N)=O)n1         %           -83.8
 7  Cc1cccc(N2CCN(C3=C(c4ccccc4)C(=O)c4ccccc43)CC2)c1C         %          -0.811
 8  COc1ccc(NC(=O)N2CCCC(c3nc(-c4ccc(F)cc4)no3)C2)cc1 (stereo unspecified)         %            2.56
 9  O=C(Nc1c(C(=O)N2CCN(c3ccc(F)cc3)CC2)oc2ccccc12)c1ccco1         %           -14.5
10  CC(Nc1nc(N2CCCC2)nc2ccccc12)c1ccccc1 (stereo unspecified)         %           -10.3
11             Fc1cnc(N2CCOCC2)nc1NCc1ccccc1         %            11.7
